TEST SETTINGS: 353.15 K; 102 kPa; Liquid; Concentric cylinders viscometry
QUANTITY KIND: viscosity (mPa·s)
Numbers only; they are read as mPa·s.

Here is how some molecules turned out for viscosity.
>>> meas_value("CCCCCCC1CCCCC1 [hexylcyclohexane]")
0.847
>>> meas_value("CCCCCCCCCC1CCCCC1 [nonylcyclohexane]")
1.35

Kindly consider the entry below.
Item under review: CCCCCCCCCCC1CCCCC1 [decylcyclohexane] . Reported viscosity?
1.55

====

TEST SETTINGS: 333.15 K; 102 kPa; Liquid; Vibrating tube method
QUANTITY KIND: mass density (kg/m3)
Numbers only; they are read as kg/m3.

Here is how some molecules turned out for mass density.
>>> meas_value("CCCC1CCCCC1 [1-cyclohexylpropane]")
762.12
>>> meas_value("CCCCCCCCCCCCCCCC [hexadecane]")
745.69

Kindly consider the entry below.
Item under review: CCCCCCCC1CCCCC1 [heptylcyclohexane] . Reported mass density?
782.83

====

TEST SETTINGS: 363.15 K; 102 kPa; Liquid; Vibrating tube method
QUANTITY KIND: mass density (kg/m3)
Numbers only; they are read as kg/m3.

Here is how some compounds turned out for mass density.
>>> meas_value("CCCCCCCCCCC1CCCCC1 [decylcyclohexane]")
771.2
>>> meas_value("CCCCCCCCCCCCC1CCCCC1 [dodecylcyclohexane]")
775.9

Item under review: CCCCCCCC1CCCCC1 [heptylcyclohexane] . Reported mass density?
761.6

Proceed to CCCCCCCCC1CCCCC1 [octylcyclohexane]
765.5

Proceed to CCCCCCC1CCCCC1 [hexylcyclohexane]
757.3

Proceed to CCCC1CCCCC1 [1-cyclohexylpropane]
738

Proceed to CCCCCCCCCC1CCCCC1 [nonylcyclohexane]
768.5
